# EXPERIMENTAL_SYSTEM: PD-1 (Homo sapiens (Human)) (UniProt Q15116)
# Sequence (Q15116 21-288 limits assumed): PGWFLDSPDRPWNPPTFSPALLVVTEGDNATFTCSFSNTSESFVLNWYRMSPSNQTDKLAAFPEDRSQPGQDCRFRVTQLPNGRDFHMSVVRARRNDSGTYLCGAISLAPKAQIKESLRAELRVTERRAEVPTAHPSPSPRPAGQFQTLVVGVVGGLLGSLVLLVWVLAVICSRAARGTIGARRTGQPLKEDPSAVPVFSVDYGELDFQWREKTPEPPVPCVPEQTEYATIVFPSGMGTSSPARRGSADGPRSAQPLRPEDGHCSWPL
# MEASUREMENT_PROTOCOL: flow cytometry, Jurkat/PD-1 cells; vs wildtype PD-L2 IgV-Fc
Reported Fold increase over wildtype PD-L2 IgV-Fc values for a set of binders
Give the value in fold but do not write fold after it.

Previously resolved entries follow.
[
  {
    "BINDER": "variant PD-L2 IgV-Fc I12V, I13V, H15Q, T47A, Q82R, V89D (Fc fusion, not shown: a dimerising Fc or GST; small tags and cut ends) FTVTVPKELYVVEQGSNVTLECNFDTGSHVNLGAITASLQKVENDASPHRERATLLEEQLPLGKASFHIPQVQVRDEGQYRCIIIYGDAWDYKYLTLK",
    "READING_UNIT": "fold",
    "Fold increase over wildtype PD-L2 IgV-Fc": 6.22
  },
  {
    "BINDER": "variant PD-L2 IgV-Fc H15Q, Q72H, Q74R, R76G, I86T (Fc fusion, not shown: a dimerising Fc or GST; small tags and cut ends) FTVTVPKELYIIEQGSNVTLECNFDTGSHVNLGAITASLQKVENDTSPHRERATLLEEQLPLGKASFHIPHVRVGDEGQYQCIITYGVAWDYKYLTLK",
    "READING_UNIT": "fold",
    "Fold increase over wildtype PD-L2 IgV-Fc": 0.41
  },
  {
    "BINDER": "variant PD-L2 IgV-Fc I13V, H15Q, S39I, E44D, S67L (Fc fusion, not shown: a dimerising Fc or GST; small tags and cut ends) FTVTVPKELYIVEQGSNVTLECNFDTGSHVNLGAITAILQKVDNDTSPHRERATLLEEQLPLGKALFHIPQVQVRDEGQYQCIIIYGVAWDYKYLTLK",
    "READING_UNIT": "fold",
    "Fold increase over wildtype PD-L2 IgV-Fc": 6.45
  },
  {
    "BINDER": "variant PD-L2 IgV-Fc H15Q, T47A, H69L, Q82R, V89D (Fc fusion, not shown: a dimerising Fc or GST; small tags and cut ends) FTVTVPKELYIIEQGSNVTLECNFDTGSHVNLGAITASLQKVENDASPHRERATLLEEQLPLGKASFLIPQVQVRDEGQYRCIIIYGDAWDYKYLTLK",
    "READING_UNIT": "fold",
    "Fold increase over wildtype PD-L2 IgV-Fc": 6.66
  },
  {
    "BINDER": "variant PD-L2 IgV-Fc S67L, I86T (Fc fusion, not shown: a dimerising Fc or GST; small tags and cut ends) LFTVTVPKELYIIEHGSNVTLECNFDTGSHVNLGAITASLQKVENDTSPHRERATLLEEQLPLGKALFHIPQVQVRDEGQYQCIITYGVAWDYKYLTLK",
    "READING_UNIT": "fold",
    "Fold increase over wildtype PD-L2 IgV-Fc": 0.69
  }
]

Query :: Fold increase over wildtype PD-L2 IgV-Fc lookup needed for variant PD-L2 IgV-Fc V89D (Fc fusion, not shown: a dimerising Fc or GST; small tags and cut ends) LFTVTVPKELYIIEHGSNVTLECNFDTGSHVNLGAITASLQKVENDTSPHRERATLLEEQLPLGKASFHIPQVQVRDEGQYQCIIIYGDAWDYKYLTLK , thanks.
Result :: 0.34

Query :: Further, for variant PD-L2 IgV-Fc H15Q, S67L, R76G (Fc fusion, not shown: a dimerising Fc or GST; small tags and cut ends) LFTVTVPKELYIIEQGSNVTLECNFDTGSHVNLGAITASLQKVENDTSPHRERATLLEEQLPLGKALFHIPQVQVGDEGQYQCIIIYGVAWDYKYLTLK ?
Result :: 4.8

Query :: Further, for variant PD-L2 IgV-Fc I13V, H15Q, E44D, V89D (Fc fusion, not shown: a dimerising Fc or GST; small tags and cut ends) LFTVTVPKELYIVEQGSNVTLECNFDTGSHVNLGAITASLQKVDNDTSPHRERATLLEEQLPLGKASFHIPQVQVRDEGQYQCIIIYGDAWDYKYLTLK ?
Result :: 2.43

Query :: Further, for variant PD-L2 IgV-Fc H15Q, E44D, R76G, I85F (Fc fusion, not shown: a dimerising Fc or GST; small tags and cut ends) LFTVTVPKELYIIEQGSNVTLECNFDTGSHVNLGAITASLQKVDNDTSPHRERATLLEEQLPLGKASFHIPQVQVGDEGQYQCIFIYGVAWDYKYLTLK ?
Result :: 0.29
